target.under.test: Neuronal acetylcholine receptor subunit alpha-4 (Homo sapiens); further: assay procedure not described here
Sequence (P43681 whole entry): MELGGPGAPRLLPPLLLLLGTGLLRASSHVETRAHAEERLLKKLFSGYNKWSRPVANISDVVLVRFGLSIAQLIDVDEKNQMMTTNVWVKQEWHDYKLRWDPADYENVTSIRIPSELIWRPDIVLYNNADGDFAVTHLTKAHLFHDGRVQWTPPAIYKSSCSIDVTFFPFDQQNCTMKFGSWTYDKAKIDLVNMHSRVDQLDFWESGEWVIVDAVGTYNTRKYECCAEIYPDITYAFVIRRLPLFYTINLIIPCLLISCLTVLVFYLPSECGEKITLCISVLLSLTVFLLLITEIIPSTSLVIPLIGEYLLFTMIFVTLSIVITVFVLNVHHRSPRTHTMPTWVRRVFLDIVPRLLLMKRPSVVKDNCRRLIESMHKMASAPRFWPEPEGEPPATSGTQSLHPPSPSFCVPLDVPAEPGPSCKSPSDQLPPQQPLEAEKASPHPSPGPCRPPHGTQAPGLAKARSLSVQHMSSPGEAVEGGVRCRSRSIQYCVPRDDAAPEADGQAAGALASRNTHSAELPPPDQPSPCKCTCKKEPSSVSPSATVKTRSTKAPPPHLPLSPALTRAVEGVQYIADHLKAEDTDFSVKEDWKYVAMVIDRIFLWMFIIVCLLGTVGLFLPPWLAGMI
Please provide measured AC50 for the entries that follow.

# lookup: AC50 of `OC[C@H]1O[C@@H](Oc2cc(O)cc(/C=C/c3ccc(O)cc3)c2)[C@H](O)[C@@H](O)[C@@H]1O`
> 30 µM

Do the same for `O=C(NCCO[N+](=O)[O-])c1cccnc1` please
> 30 µM

For `O=C(CCCN1CCC(O)(c2ccc(Br)cc2)CC1)c1ccc(F)cc1` then?
> 30 µM

Now the same for `CCC[C@@H]1C[C@@H](C(=O)N[C@@H]([C@H]2O[C@H](SC)[C@H](O)[C@@H](O)[C@H]2O)[C@@H](C)O)N(C)C1`
> 10 µM

And what about the molecule `CN[C@@H](C)[C@@H](O)c1ccccc1` ?
> 10 µM

Another molecule: `CC(C)(O/N=C(\C(=O)N[C@@H]1C(=O)N2C(C(=O)[O-])=C(C[n+]3ccccc3)CS[C@H]12)c1csc(N)n1)C(=O)O`
> 300 µM

Entry to check: `CCCCOc1ccc(C(=O)CCN2CCCCC2)cc1`
> 10 µM

Can you handle `CC(C)c1cccc(C(C)C)c1O` next?
> 30 µM

What do you get for `CC(=O)[C@H]1CC[C@H]2[C@@H]3C[C@H](C)C4=CC(=O)CC[C@]4(C)[C@H]3[C@@H](O)C[C@]12C` ?
> 10 µM

Queued: `O=C(O)Cc1ccccc1Nc1c(Cl)cccc1Cl`
> 10 µM

Quick one: CC[C@@H](CO)NC(=O)[C@@H]1C=C2c3cccc4c3c(cn4C)C[C@H]2N(C)C1 [METHYSERGIDE]
> 10 µM

# iterate: `c1ccc(C2(N3CCCCC3)CCCCC2)cc1`
> 30 µM

# iterate: `C=C1c2cccc(O)c2C(=O)C2=C(O)[C@]3(O)C(=O)C(C(N)=O)=C(O)[C@@H](N(C)C)[C@@H]3[C@@H](O)[C@H]12`
> 30 µM

What do you have for CN1Cc2c(N)cccc2C(c2ccccc2)C1 (centres undefined) ?
> 30 µM

Then this molecule: `CN1CCN=C(c2ccccc2)c2cc(Cl)ccc21`
30 µM

Please do the same for CN(CCOc1ccc(CC2SC(=O)NC2=O)cc1)c1ccccn1 (centres undefined) as well.
> 30 µM

What about this molecule? `COc1cc2[nH]c(C)c(CCN3CCN(c4ccccc4)CC3)c2cc1OC`
27 µM

Moving on to the next molecule: CCCNC(=O)NS(=O)(=O)c1ccc(Cl)cc1 [CHLORPROPAMIDE]
> 10 µM

// same read-out, input: `CC(C)N(CCCCOCC(=O)O)c1cnc(-c2ccccc2)c(-c2ccccc2)n1`
> 30 µM

Again, but for CC(C)[C@@H](C)/C=C/[C@@H](C)[C@H]1CC[C@H]2/C(=C/C=C3\C[C@@H](O)CC[C@@H]3C)CCC[C@]12C [DIHYDROTACHYSTEROL]
> 10 µM

Next molecule up: `Cn1cc(C(=O)[C@@H]2CCc3nc[nH]c3C2)c2ccccc21`
> 30 µM

Input `C[C@]12C/C(=C/O)C(=O)C[C@@H]1CC[C@@H]1[C@@H]2CC[C@@]2(C)[C@H]1CC[C@]2(C)O`
> 30 µM

Same for `CCC(=O)O[C@](Cc1ccccc1)(c1ccccc1)[C@H](C)CN(C)C`
> 10 µM

Next: CC1=C(C(=O)OC(C)C)C(c2cccc([N+](=O)[O-])c2)C(C(=O)OC2CN(C(c3ccccc3)c3ccccc3)C2)=C(N)N1 (centres undefined)
> 30 µM

Please do the same for `O=S1(=O)CCN(CN2CCS(=O)(=O)NC2)CN1` as well.
> 30 µM

Query `COc1cc(C)c(/C=C/C(C)=C/C=C/C(C)=C/C(=O)O)c(C)c1C` next
> 10 µM

Please do the same for `CN(C)Cc1nnc2n1-c1ccc(Cl)cc1C(c1ccccc1)=NC2` as well.
> 10 µM

Try this molecule too: `C[C@]12C=CC(=O)C=C1CC[C@@H]1[C@@H]2CC[C@]2(C)OC(=O)CC[C@@H]12`
> 10 µM

Same lookup for `CCOC(=O)c1ccc(N)cc1` , please.
> 10 µM

For Cn1c(=O)c2c(ncn2CCOC(=O)C(C)(C)Oc2ccc(Cl)cc2)n(C)c1=O [THEOFIBRATE] then?
> 30 µM

Same thing, different molecule: COc1cc(C(=O)NC2CCCNC2)cc(OC)c1OC (centres undefined) [TROXIPIDE]
> 30 µM

Quick one: O=C1OC(OC(=O)c2cccnc2Nc2cccc(C(F)(F)F)c2)c2ccccc21 (centres undefined) [TALNIFLUMATE]
> 30 µM

Record: `CC[C@H](C)C(=O)O[C@H]1C[C@@H](C)C=C2C=C[C@H](C)[C@H](CC[C@@H]3C[C@@H](O)CC(=O)O3)[C@H]21`
> 10 µM

Request: CCN1CC(CCN2CCOCC2)C(c2ccccc2)(c2ccccc2)C1=O (centres undefined)
> 30 µM
